- tgt: Aryl hydrocarbon receptor (Oryctolagus cuniculus, UniProt O02747)
- Sequence (O02747 whole entry): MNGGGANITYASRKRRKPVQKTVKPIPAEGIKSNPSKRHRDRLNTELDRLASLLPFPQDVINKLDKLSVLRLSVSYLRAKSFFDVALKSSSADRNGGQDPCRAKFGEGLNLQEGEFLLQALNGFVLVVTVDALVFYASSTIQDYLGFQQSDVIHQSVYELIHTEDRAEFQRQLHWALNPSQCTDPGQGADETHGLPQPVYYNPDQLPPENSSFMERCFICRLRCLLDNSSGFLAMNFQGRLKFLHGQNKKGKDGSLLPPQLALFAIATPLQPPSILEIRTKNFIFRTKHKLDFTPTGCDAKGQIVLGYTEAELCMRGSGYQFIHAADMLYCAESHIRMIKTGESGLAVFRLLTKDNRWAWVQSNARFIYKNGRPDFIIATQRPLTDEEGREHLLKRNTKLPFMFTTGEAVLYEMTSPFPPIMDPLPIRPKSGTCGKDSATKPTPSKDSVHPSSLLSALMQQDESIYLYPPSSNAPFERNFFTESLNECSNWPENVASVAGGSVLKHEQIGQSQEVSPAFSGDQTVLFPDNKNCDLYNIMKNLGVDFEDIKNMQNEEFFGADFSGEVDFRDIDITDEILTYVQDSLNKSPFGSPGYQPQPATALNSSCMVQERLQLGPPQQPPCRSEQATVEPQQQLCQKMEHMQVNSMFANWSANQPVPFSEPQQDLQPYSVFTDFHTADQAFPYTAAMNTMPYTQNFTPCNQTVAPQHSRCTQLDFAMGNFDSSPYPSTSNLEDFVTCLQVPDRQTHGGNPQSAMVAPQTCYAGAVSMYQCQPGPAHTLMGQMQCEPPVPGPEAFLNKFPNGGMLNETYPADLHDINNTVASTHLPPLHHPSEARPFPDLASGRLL
- procedure-summary: Binding affinity for aryl hydrocarbon receptor (AhR) of rabbit liver cytosol incubated with 0.2 nM [3H]-TCDD; Antagonist
Threshold check on Ki: strictly below 20 nM is fulfilled; on or above 20 nM is not fulfilled.

Q: Record COc1ccc(/C=C\c2cc(OC)cc(OC)c2)cc1 : is its Ki strictly below 20 nM?
Result: not fulfilled

Q: Record CCOc1ccc(/C=C/c2cc(OC)cc(OC)c2)cc1 : is its Ki strictly below 20 nM?
Result: fulfilled

Q: Record COc1cc(/C=C\c2ccc(F)cc2)cc(OC)c1 : is its Ki strictly below 20 nM?
Result: not fulfilled

Q: Record COc1ccc(/C=C\c2cc(F)cc(F)c2)cc1 : is its Ki strictly below 20 nM?
Result: not fulfilled

Q: Record FC(F)(F)c1cccc(/C=C\c2cc(Cl)cc(Cl)c2)c1 : is its Ki strictly below 20 nM?
Result: fulfilled

Q: Record COc1ccc(/C=C\c2cc(Cl)cc(Cl)c2)cc1 : is its Ki strictly below 20 nM?
Result: fulfilled

Q: Record COc1cccc(/C=C\c2cc(Cl)cc(Cl)c2)c1 : is its Ki strictly below 20 nM?
Result: not fulfilled

Q: Record Clc1ccc(/C=C/c2cc(Cl)cc(Cl)c2)cc1 : is its Ki strictly below 20 nM?
Result: fulfilled

Q: Record CCOc1ccc(/C=C\c2cc(OC)cc(OC)c2)cc1 : is its Ki strictly below 20 nM?
Result: not fulfilled

Q: Record COc1ccc(/C=C/c2cc(Cl)cc(Cl)c2)cc1 : is its Ki strictly below 20 nM?
Result: fulfilled

Q: Record FC(F)(F)c1ccc(/C=C\c2cc(Cl)cc(Cl)c2)cc1 : is its Ki strictly below 20 nM?
Result: fulfilled

Q: Record Clc1ccc(/C=C\c2cc(Cl)cc(Cl)c2)cc1 : is its Ki strictly below 20 nM?
Result: fulfilled
